B1: FERM and PDZ domain-containing protein 4, residues 75 to 154; numbered along this chain, Q14CM0 (parent)
chain: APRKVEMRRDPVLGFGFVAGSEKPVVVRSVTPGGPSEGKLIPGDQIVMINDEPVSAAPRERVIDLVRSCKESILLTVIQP

Variants of: B1
Test summary: abundance fitness (aPCA) (normalised: wild type 0, dead -1); higher = more abundant; growth selection in yeast, the domain comes from the species named
Experimental setup: Homo sapiens
Below is a list of entries, each paired with its recorded abundance fitness value.
No unit in the answer, only the number.

// query abundance fitness value for entry D51F
-0.194

Query: abundance fitness; subject: E6W
-0.047

Bench note: what abundance fitness did V26C show?
-0.07

Which abundance fitness value belongs to V5D ?
-0.976

Would you kindly share the measured abundance fitness for V62D ?
-0.793

abundance fitness lookup needed for I73W , thanks.
-0.954

I'd like to know its abundance fitness. The variant in question is D10G
-0.591
